test system: PC-3; test: Cytotoxicity against human PC3 cells after 48 hrs by MTT assay; type: functional, cell-based; conditions: PC-3, 48 h
pIC50: −log10 of the molar value.
Entries and their pIC50 values follow.

- MOLECULE: "O=C(c1cc(Oc2cccc(NC(=S)Nc3ccc(OC(F)(F)F)cc3)c2)ccn1)N1CCCC1"
  pIC50: 4.47
- MOLECULE: "O=C(c1cc(Oc2cccc(NC(=S)Nc3ccc(Cl)c(C(F)(F)F)c3)c2)ccn1)N1CCCC1"
  pIC50: 4.92
- MOLECULE: "CNC(=O)c1cc(Oc2cccc(NC(=S)Nc3cccc(C(F)(F)F)c3)c2)ccn1"
  pIC50: 4.61
- MOLECULE: "O=C(NCc1ccccc1)c1cc(Oc2cccc(NC(=S)Nc3ccc(OC(F)(F)F)cc3)c2)ccn1"
  pIC50: 5.17
- MOLECULE: "CC(C)NC(=O)c1cc(Oc2cccc(NC(=S)Nc3ccc(OC(F)(F)F)cc3)c2)ccn1"
  pIC50: 4.93
- MOLECULE: "CNC(=O)c1cc(Oc2cccc(NC(=S)Nc3ccc(OC(F)(F)F)cc3)c2)ccn1"
  pIC50: 4.46
- MOLECULE: "CNC(=O)c1cc(Oc2ccc(NC(=O)Nc3ccc(Cl)c(C(F)(F)F)c3)cc2)ccn1 [SORAFENIB]"
  pIC50: 5.17
- MOLECULE: "O=C(NC1CCCCC1)c1cc(Oc2cccc(NC(=S)Nc3ccc(Cl)c(C(F)(F)F)c3)c2)ccn1"
  pIC50: 5.66
- MOLECULE: "CNC(=O)c1cc(Oc2cccc(NC(=S)Nc3ccc(F)c(F)c3)c2)ccn1"
  pIC50: 4.48
- MOLECULE: "O=C(NCc1ccccc1)c1cc(Oc2cccc(NC(=S)Nc3cccc(C(F)(F)F)c3)c2)ccn1"
  pIC50: 4.96
- MOLECULE: "CNC(=O)c1cc(Oc2cccc(NC(=S)Nc3ccc(Cl)c(C(F)(F)F)c3)c2)ccn1"
  pIC50: 4.79
- MOLECULE: "CCNC(=O)c1cc(Oc2cccc(NC(=S)Nc3ccc(Cl)c(C(F)(F)F)c3)c2)ccn1"
  pIC50: 5.07
- MOLECULE: "O=C(NC1CC1)c1cc(Oc2cccc(NC(=S)Nc3ccc(Cl)c(C(F)(F)F)c3)c2)ccn1"
  pIC50: 5.17
- MOLECULE: "CNC(=O)c1cc(Oc2cccc(NC(=S)Nc3ccc(Cl)cc3Cl)c2)ccn1"
  pIC50: 4.42
- MOLECULE: "CCNC(=O)c1cc(Oc2cccc(NC(=S)Nc3ccc(F)c(F)c3)c2)ccn1"
  pIC50: 4.58
- MOLECULE: "O=C(c1cc(Oc2cccc(NC(=S)Nc3ccc(F)c(F)c3)c2)ccn1)N1CCCC1"
  pIC50: 4.34
- MOLECULE: "O=C(NC1CCCCC1)c1cc(Oc2cccc(NC(=S)Nc3cccc(C(F)(F)F)c3)c2)ccn1"
  pIC50: 4.77
- MOLECULE: "CC(C)NC(=O)c1cc(Oc2cccc(NC(=S)Nc3ccc(Cl)cc3)c2)ccn1"
  pIC50: 4.67
- MOLECULE: "O=C(NC1CCCCC1)c1cc(Oc2cccc(NC(=S)Nc3ccc(F)c(F)c3)c2)ccn1"
  pIC50: 5.09

----------
Entries and their IC50 values follow.
test system: MDA-MB-231; assay: Cytotoxicity against human MDA-MB-231 cells after 48 hrs by MTT assay; assay type: functional, cell-based; conditions: MDA-MB-231, 48 h
METRIC NAME: IC50 (µM)

- CHEMICAL STRING: "O=C(c1cc(Oc2cccc(NC(=S)Nc3ccc(OC(F)(F)F)cc3)c2)ccn1)N1CCCC1"
  METRIC NAME: "IC50"
  QUAL: "="
  MEAS VALUE: 37.8
- CHEMICAL STRING: "O=C(NC1CCCCC1)c1cc(Oc2cccc(NC(=S)Nc3ccc(Cl)c(C(F)(F)F)c3)c2)ccn1"
  METRIC NAME: "IC50"
  QUAL: "="
  MEAS VALUE: 34.2
- CHEMICAL STRING: "CCNC(=O)c1cc(Oc2cccc(NC(=S)Nc3ccc(F)c(F)c3)c2)ccn1"
  METRIC NAME: "IC50"
  QUAL: ">"
  MEAS VALUE: 100
- CHEMICAL STRING: "O=C(NCc1ccccc1)c1cc(Oc2cccc(NC(=S)Nc3ccc(OC(F)(F)F)cc3)c2)ccn1"
  METRIC NAME: "IC50"
  QUAL: ">"
  MEAS VALUE: 100

From: ChEMBL document CHEMBL2157976
